Tgt: DD(E) soluble fibrin-derived polypeptide (UniProt P02671)
Test Name: Kd against DD(E) target, 'as described above'
Parameter Measured: Kd
A complete answer gives the number and then names the unit.

Binder	Kd
RFLCYDSYYHWWCSHH (peptide, not shown: large carriers)	10000 nM
WFHCPYDLCHIL (peptide, not shown: large carriers)	1400 nM
QWECPYGLCWIQ (peptide, not shown: large carriers)	740 nM

Task: Which Kd value belongs to NHGCYNSYGVPYCDYS (peptide, not shown: large carriers) ?
Result: 2700 nM
